- tested target: Tryptophan 2,3-dioxygenase (Homo sapiens)
- Sequence (P48775 whole entry): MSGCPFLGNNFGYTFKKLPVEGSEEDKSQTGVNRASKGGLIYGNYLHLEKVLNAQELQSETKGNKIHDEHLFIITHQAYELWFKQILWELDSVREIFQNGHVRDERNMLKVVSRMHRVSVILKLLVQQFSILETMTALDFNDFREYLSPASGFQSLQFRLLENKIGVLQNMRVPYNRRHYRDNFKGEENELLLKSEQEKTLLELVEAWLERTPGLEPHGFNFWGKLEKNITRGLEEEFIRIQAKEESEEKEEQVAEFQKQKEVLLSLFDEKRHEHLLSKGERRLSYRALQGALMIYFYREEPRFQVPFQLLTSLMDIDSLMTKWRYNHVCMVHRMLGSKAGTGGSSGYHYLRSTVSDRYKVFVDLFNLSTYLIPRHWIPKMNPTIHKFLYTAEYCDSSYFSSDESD
- measurement description: Inhibition of human TDO2 expressed in HEK293E cells assessed as reduction in N-formylkynurenine formation using tryptophan as substrate measured after 24 hrs by HPLCC based UV spectrometry

>  <cpd smiles>
O=S(=O)(c1ccc(-c2c[nH]c3cc(F)ccc23)cn1)N1CCNCC1

>  <IC50 [µM]>
3.2

$$$$

###

- measurement description: Cytotoxicity against mouse P815B cells incubated for 2 to 4 hrs by MTS assay
- Format: cell-based, P815
- conditions: time 2-4 hrs, read-out: LD50 (the source's name)
# Lookup of reported CC50 keyed by entry

>  <molecule>
O=C1NCC2C=CC(c3c[nH]c4ccccc34)=CC2N1 (stereo not drawn)

>  <CC50>
> 30 µM

$$$$
>  <molecule>
c1ccc2c(-c3ccc4n[nH]nc4c3)c[nH]c2c1

>  <CC50>
> 100 µM

$$$$
>  <molecule>
c1ccc2c(-c3ccc4ccncc4c3)c[nH]c2c1

>  <CC50>
> 20 µM

$$$$
>  <molecule>
c1ccc2c(-c3ccc4ncncc4c3)c[nH]c2c1

>  <CC50>
> 100 µM

$$$$
>  <molecule>
c1ccc2c(-c3ccc4cnccc4c3)c[nH]c2c1

>  <CC50>
> 30 µM

$$$$
>  <molecule>
Fc1ccc2c(/C=C/c3nnn[nH]3)c[nH]c2c1

>  <CC50>
> 100 µM

$$$$
>  <molecule>
Fc1ccc2c(/C=C/c3cccnc3)c[nH]c2c1

>  <CC50>
> 80 µM

$$$$
>  <molecule>
c1ccc2c(-c3ccc4cncnc4c3)c[nH]c2c1

>  <CC50>
> 100 µM

$$$$
